Quick reference: pIC50 of the listed items.
Target: human integrin αVβ8 (Homo sapiens, UniProt P06756+P26012)
Sequence (P06756 31-992 limits assumed): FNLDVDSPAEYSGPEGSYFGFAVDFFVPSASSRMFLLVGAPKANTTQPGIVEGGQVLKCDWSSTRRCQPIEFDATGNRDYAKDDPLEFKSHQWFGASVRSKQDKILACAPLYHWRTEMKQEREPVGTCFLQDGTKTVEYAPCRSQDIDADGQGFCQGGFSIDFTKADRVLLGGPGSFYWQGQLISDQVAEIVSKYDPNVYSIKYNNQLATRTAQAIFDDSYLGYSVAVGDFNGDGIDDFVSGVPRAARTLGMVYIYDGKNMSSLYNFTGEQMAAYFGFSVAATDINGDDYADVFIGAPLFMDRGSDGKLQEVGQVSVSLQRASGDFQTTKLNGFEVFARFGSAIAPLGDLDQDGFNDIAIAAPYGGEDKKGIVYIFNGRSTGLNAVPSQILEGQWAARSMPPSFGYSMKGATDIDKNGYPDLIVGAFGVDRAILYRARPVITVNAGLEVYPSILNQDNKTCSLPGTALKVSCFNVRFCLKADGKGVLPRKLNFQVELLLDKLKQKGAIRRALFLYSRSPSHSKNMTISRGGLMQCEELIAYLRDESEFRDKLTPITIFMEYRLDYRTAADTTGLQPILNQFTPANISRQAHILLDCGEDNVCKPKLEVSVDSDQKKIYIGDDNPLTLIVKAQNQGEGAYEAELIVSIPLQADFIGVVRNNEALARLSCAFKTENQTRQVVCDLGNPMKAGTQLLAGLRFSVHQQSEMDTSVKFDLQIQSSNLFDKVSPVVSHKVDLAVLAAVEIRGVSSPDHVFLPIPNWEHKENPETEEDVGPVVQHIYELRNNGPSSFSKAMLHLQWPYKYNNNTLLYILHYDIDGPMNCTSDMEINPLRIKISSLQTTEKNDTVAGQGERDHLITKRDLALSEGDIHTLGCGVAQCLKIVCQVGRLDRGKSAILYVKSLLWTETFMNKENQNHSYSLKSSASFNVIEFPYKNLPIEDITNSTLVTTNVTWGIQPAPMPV
Sequence (P26012 43-684 limits assumed): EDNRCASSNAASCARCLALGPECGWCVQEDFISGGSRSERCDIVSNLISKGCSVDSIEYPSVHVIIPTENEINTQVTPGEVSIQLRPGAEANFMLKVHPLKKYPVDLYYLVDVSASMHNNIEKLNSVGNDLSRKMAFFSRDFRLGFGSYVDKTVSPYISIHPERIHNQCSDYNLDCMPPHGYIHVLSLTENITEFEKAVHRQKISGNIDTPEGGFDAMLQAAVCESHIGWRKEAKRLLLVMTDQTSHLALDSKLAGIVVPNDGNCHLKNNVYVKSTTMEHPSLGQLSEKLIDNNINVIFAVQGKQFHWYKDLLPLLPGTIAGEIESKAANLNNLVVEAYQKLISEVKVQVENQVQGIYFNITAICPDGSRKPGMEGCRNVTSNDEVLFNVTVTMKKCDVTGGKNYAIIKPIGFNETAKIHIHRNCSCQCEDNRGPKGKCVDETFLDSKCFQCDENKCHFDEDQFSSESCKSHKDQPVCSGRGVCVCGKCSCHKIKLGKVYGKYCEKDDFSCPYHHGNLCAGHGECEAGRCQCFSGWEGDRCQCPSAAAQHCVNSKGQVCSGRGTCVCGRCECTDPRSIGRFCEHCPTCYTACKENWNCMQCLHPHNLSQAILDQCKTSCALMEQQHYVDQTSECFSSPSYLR
Assay: AlphaScreen proximity-based integrin binding assay with TGF-b1 LAP
Details: values given as ranges
pIC50: −log10 of the molar value.
endpoint-name: pIC50

1) COc1cccc(C2(C(=O)N[C@@H](CCOCCCCc3ccc4c(n3)NCCC4)C(=O)O)CC2)n1
> 7.30
2) CC(C)(C(=O)NC(CCOCCCCc1ccc2c(n1)NCCC2)C(=O)O)c1ccccc1 (stereo not drawn)
6.82 to 7.30
3) O=C(Cc1ccccc1)N[C@@H](CCOCCCCc1ccc2c(n1)NCCC2)C(=O)O
6.82 to 7.30
4) CC(C)(C(=O)N[C@@H](CCOCCCCc1ccc2c(n1)NCCC2)C(=O)O)c1ccccc1
6.82 to 7.30
5) Cc1ccncc1C1(C(=O)N[C@@H](CCOCCCCc2ccc3c(n2)NCCC3)C(=O)O)CC1
> 7.30
6) CC(C)(C(=O)N[C@@H](CCOCCCCc1ccc2c(n1)NCCC2)C(=O)O)c1c(F)cccc1OC(F)F
6.82 to 7.30
7) O=C(O)[C@H](CCOCCCCc1ccc2c(n1)NCCC2)NC(=O)C1(c2ncccc2CF)CC1
> 7.30
8) O=C(O)[C@H](CCOCCCCc1ccc2c(n1)NCCC2)NC(=O)C1(c2ncc(F)cc2Cl)CC1
> 7.30
9) O=C(O)[C@H](CCOCCCCc1ccc2c(n1)NCCC2)NC(=O)C1(c2ncnc3ccccc23)CC1
> 7.30
10) O=C(O)[C@H](CCOCCCCc1ccc2c(n1)NCCC2)NC(=O)C1(c2c(Cl)cc[nH]c2=O)CC1
> 7.30
11) Cn1nccc1C1(C(=O)N[C@@H](CCOCCCCc2ccc3c(n2)NCCC3)C(=O)O)CC1
6.82 to 7.30
12) COc1ccc(Cl)c(C2(C(=O)N[C@@H](CCOCCCCc3ccc4c(n3)NCCC4)C(=O)O)CC2)n1
> 7.30
13) O=C(O)[C@H](CCOCCCCc1ccc2c(n1)NCCC2)NC(=O)C1(c2[nH]c(=O)ccc2Cl)CC1
> 7.30
14) Cc1ncc(F)cc1C1(C(=O)N[C@@H](CCOCCCCc2ccc3c(n2)NCCC3)C(=O)O)CC1
> 7.30
15) O=C(O)[C@H](CCOCCCCc1ccc2c(n1)NCCC2)NC(=O)C1(n2c(Cl)cccc2=O)CC1
> 7.30
16) O=C(O)[C@H](CCOCCCCc1ccc2c(n1)NCCC2)NC(=O)C1(C(F)(F)F)CCN(CC(F)(F)F)CC1
> 7.30
17) O=C(O)[C@H](CCOCCCCc1ccc2c(n1)NCCC2)NC(=O)C1(c2cccc(C(F)(F)F)c2)CCOCC1
> 7.30
18) Cc1cccnc1C1(C(=O)N[C@@H](CCOCCCCc2ccc3c(n2)NCCC3)C(=O)O)CC1
> 7.30
19) O=C(O)[C@H](CCOCCCCc1ccc2c(n1)NCCC2)NC(=O)C1(c2ncncc2Cl)CC1
> 7.30
20) COc1cccnc1C1(C(=O)N[C@@H](CCOCCCCc2ccc3c(n2)NCCC3)C(=O)O)CC1
6.82 to 7.30
21) O=C(O)[C@H](CCOCCCCc1ccc2c(n1)NCCC2)NC(=O)C1(c2c(Cl)nc[nH]c2=O)CC1
6.82 to 7.30
22) O=C(O)[C@H](CCOCCCCc1ccc2c(n1)NCCC2)NC(=O)C1(c2cccnc2C(F)F)CC1
6.82 to 7.30
23) Cc1ncnc(Cl)c1C1(C(=O)N[C@@H](CCOCCCCc2ccc3c(n2)NCCC3)C(=O)O)CC1
> 7.30
24) N#Cc1cccnc1C1(C(=O)N[C@@H](CCOCCCCc2ccc3c(n2)NCCC3)C(=O)O)CC1
> 7.30
25) [2H]C1([2H])C([2H])([2H])C1(C(=O)N[C@@H](CCOCCCCc1ccc2c(n1)NCCC2)C(=O)O)c1c(C)ncnc1Cl
> 7.30
26) O=C(O)[C@H](CCOCCCCc1ccc2c(n1)NCCC2)NC(=O)C1(c2ccc(F)cc2)CCOCC1
6.82 to 7.30
27) O=C(O)[C@H](CCOCCCCc1ccc2c(n1)NCCC2)NC(=O)C1(c2ncccc2C2CC2)CC1
6.60 to 6.82
28) O=C(O)[C@H](CCOCCCCc1ccc2c(n1)NCCC2)NC(=O)C1(n2c(=O)ccc3ccccc32)CC1
> 7.30
29) Cn1cc(C(F)(F)F)c(C2(C(=O)N[C@@H](CCOCCCCc3ccc4c(n3)NCCC4)C(=O)O)CC2)n1
> 7.30
30) N#Cc1cc(F)ccc1C1(C(=O)N[C@@H](CCOCCCCc2ccc3c(n2)NCCC3)C(=O)O)CC1
> 7.30

====

Molecular target: human integrin αVβ1 (Homo sapiens, UniProt P05556+P06756)
Sequence (P05556 21-728 limits assumed, one chain of several): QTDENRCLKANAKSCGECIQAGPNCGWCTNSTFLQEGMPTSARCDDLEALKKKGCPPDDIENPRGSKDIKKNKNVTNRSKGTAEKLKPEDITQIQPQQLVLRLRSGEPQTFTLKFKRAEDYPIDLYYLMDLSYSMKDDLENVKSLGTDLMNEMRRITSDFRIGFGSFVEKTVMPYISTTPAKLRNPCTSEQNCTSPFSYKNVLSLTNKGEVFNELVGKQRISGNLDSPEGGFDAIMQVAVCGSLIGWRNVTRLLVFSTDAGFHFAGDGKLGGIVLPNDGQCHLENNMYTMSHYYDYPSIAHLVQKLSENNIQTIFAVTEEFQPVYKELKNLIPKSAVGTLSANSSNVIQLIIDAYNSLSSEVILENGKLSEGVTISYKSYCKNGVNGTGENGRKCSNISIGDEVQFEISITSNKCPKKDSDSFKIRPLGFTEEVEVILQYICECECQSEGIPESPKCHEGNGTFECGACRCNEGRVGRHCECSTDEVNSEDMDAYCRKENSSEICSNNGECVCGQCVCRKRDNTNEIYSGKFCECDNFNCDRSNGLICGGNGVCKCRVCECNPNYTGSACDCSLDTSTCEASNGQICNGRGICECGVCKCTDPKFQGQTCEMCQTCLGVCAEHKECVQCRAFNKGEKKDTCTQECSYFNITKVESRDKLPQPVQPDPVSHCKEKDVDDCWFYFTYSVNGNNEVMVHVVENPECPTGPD
Test: AlphaScreen proximity-based integrin binding assay with TGF-b1 LAP
Settings: values given as ranges
Method: The biochemical potency of the disclosed compounds was determined using the AlphaScreen® (Perkin Elmer, Waltham, MA) proximity-based assay as described previously (Ullman E F et al., Luminescent oxygen channeling immunoassay: Measurement of particle binding kinetics by chemiluminescence. Proc. Natl. Acad. Sci. USA, Vol. 91, pp. 5426-5430, June 1994, herein incorporated by reference in its entirety). […] 2. […] After another 30 minute incubation, samples were then read. […]
endpoint-name: IC50

1. O=C(N[C@@H](CCOCCCCc1ccc2c(n1)NCCC2)C(=O)O)c1ccnn1-c1ccccc1 [Compound 99]
< 50 nM
2. O=C(O)[C@H](CCOCCCCc1ccc2c(n1)NCCC2)NC(=O)C1(c2c(Cl)nc[nH]c2=O)CC1 [Compound 63]
150 to 250 nM
3. O=C(O)[C@H](CCOCCCCc1ccc2c(n1)NCCC2)NC(=O)C1(c2nccnc2C(F)(F)F)CC1 [Compound 67]
< 50 nM
4. O=C(O)[C@H](CCOCCCCc1ccc2c(n1)NCCC2)NC(=O)C1(C(F)(F)F)CCOCC1 [Compound 100]
< 50 nM
5. COc1ccc(Cl)c(C2(C(=O)N[C@@H](CCOCCCCc3ccc4c(n3)NCCC4)C(=O)O)CC2)n1 [Compound 26]
< 50 nM
6. O=C(O)[C@H](CCOCCCCc1ccc2c(n1)NCCC2)NC(=O)C1(c2ncccc2C(F)(F)F)CC1 [Compound 25]
< 50 nM
7. O=C(O)[C@H](CCOCCCCc1ccc2c(n1)NCCC2)NC(=O)C1(c2ncncc2Cl)CC1 [Compound 49]
< 50 nM
8. O=C(O)[C@H](CCOCCCCc1ccc2c(n1)NCCC2)NC(=O)C1(c2cn[nH]c2Cl)CC1 [Compound 74]
< 50 nM
9. O=C(O)[C@H](CCOCCCCc1ccc2c(n1)NCCC2)NC(=O)C1(c2ncccc2C(F)F)CC1 [Compound 40]
< 50 nM
10. O=C(O)[C@H](CCOCCCCc1ccc2c(n1)NCCC2)NC(=O)C1(c2ccccc2)CC1 [Compound 10]
< 50 nM
11. Cc1ccccc1C1(C(=O)N[C@@H](CCOCCCCc2ccc3c(n2)NCCC3)C(=O)O)CC1 [Compound 17]
50 to 150 nM
12. O=C(O)[C@H](CCOCCCCc1ccc2c(n1)NCCC2)NC(=O)C1(c2ncccn2)CC1 [Compound 12]
50 to 150 nM
13. O=C(O)[C@H](CCOCCCCc1ccc2c(n1)NCCC2)NC(=O)C1(c2cccnc2C(F)F)CC1 [Compound 57]
< 50 nM
14. O=C(O)[C@H](CCOCCCCc1ccc2c(n1)NCCC2)NC(=O)C1(c2cccc(C(F)(F)F)c2)CCOCC1 [Compound 86]
< 50 nM
15. Cc1cnc(C2(C(=O)N[C@@H](CCOCCCCc3ccc4c(n3)NCCC4)C(=O)O)CC2)c(Cl)c1 [Compound 36]
< 50 nM
16. O=C(O)[C@H](CCOCCCCc1ccc2c(n1)NCCC2)NC(=O)C1(c2c(Cl)cc[nH]c2=O)CC1 [Compound 68]
< 50 nM
17. COc1ncnc(C)c1C1(C(=O)N[C@@H](CCOCCCCc2ccc3c(n2)NCCC3)C(=O)O)CC1 [Compound 61]
< 50 nM
18. Cn1ncc(Cl)c1C1(C(=O)N[C@@H](CCOCCCCc2ccc3c(n2)NCCC3)C(=O)O)CC1 [Compound 51]
< 50 nM
19. Cc1nc(C)c(C2(C(=O)N[C@@H](CCOCCCCc3ccc4c(n3)NCCC4)C(=O)O)CC2)c(Cl)n1 [Compound 60]
< 50 nM
20. CC(C)(C(=O)N[C@@H](CCOCCCCc1ccc2c(n1)NCCC2)C(=O)O)c1ccccc1 [Compound 2]
< 50 nM
21. O=C(O)[C@H](CCOCCCCc1ccc2c(n1)NCCC2)NC(=O)C1(n2nc(Cl)cc2Cl)CC1 [Compound 69]
< 50 nM
22. COc1cccnc1C1(C(=O)N[C@@H](CCOCCCCc2ccc3c(n2)NCCC3)C(=O)O)CC1 [Compound 30]
50 to 150 nM
23. O=C(O)[C@H](CCOCCCCc1ccc2c(n1)NCCC2)NC(=O)C1(C(F)(F)F)CCN(CC(F)(F)F)CC1 [Compound 96]
< 50 nM
24. O=C(O)[C@H](CCOCCCCc1ccc2c(n1)NCCC2)NC(=O)C1(n2c(C3CC3)cccc2=O)CC1 [Compound 91]
< 50 nM
25. O=C(O)[C@H](CCOCCCCc1ccc2c(n1)NCCC2)NC(=O)C1(c2cncnc2C(F)F)CC1 [Compound 59]
< 50 nM
26. O=C(O)[C@H](CCOCCCCc1ccc2c(n1)NCCC2)NC(=O)C1(n2ccnc2C(F)(F)F)CC1 [Compound 70]
< 50 nM
27. COc1ncc(F)cc1C1(C(=O)N[C@@H](CCOCCCCc2ccc3c(n2)NCCC3)C(=O)O)CC1 [Compound 33]
< 50 nM
28. Cc1ncnc(Cl)c1C1(C(=O)NC(CCOCCCCc2ccc3c(n2)NCCC3)C(=O)O)CC1 (stereo not drawn) [Compound 101]
< 50 nM
29. COc1cccc(=O)n1C1(C(=O)N[C@@H](CCOCCCCc2ccc3c(n2)NCCC3)C(=O)O)CC1 [Compound 92]
50 to 150 nM
30. CS(=O)(=O)c1ccccc1C1(C(=O)N[C@@H](CCOCCCCc2ccc3c(n2)NCCC3)C(=O)O)CC1 [Compound 46]
50 to 150 nM
